Tested on: HOP-92 NSCLC
Assay: NCI-60 one-dose screen, 48 h
Settings: 10 µM unless noted
This is part of a sample that, as a whole, favours compounds with a hit. Of some 83,000 tested, about 20% had one in any assay. Activity calls are given as the source filed them. The calls were made as follows: active = growth percent below 10; inactive = the rest.
Valid outcomes are listed here; reply with one: active, inactive

Q: Per the assay record, what outcome was assigned to Nc1c(C(=O)Nc2cccc3ccccc23)sc2nc3c(cc12)CCCCC3 ?
A: inactive

Q: Per the assay record, what outcome was assigned to COc1cc(C2=NN(c3ccccc3)C(c3cccc(Nc4ccnc5cc(C(F)(F)F)ccc45)c3)C2)cc(OC)c1OC (stereo not drawn) ?
A: inactive

Q: Per the assay record, what outcome was assigned to COc1ccc2c(c1)OC13Oc4cc(OC)ccc4C=C1CCCCC3=C2 ?
A: inactive

Q: Per the assay record, what outcome was assigned to CC1CCCN(CCCCCOc2ccc3oc4ccc(Cl)cc4c(=O)c3c2)C1 (stereo not drawn) ?
A: inactive

Q: Per the assay record, what outcome was assigned to CCOCCc1c(O)nc(SC)[nH]c1=O ?
A: inactive

Q: Per the assay record, what outcome was assigned to OCCNc1nc(NCCO)nc(Nc2ccc(C3=NN(c4cc(Cl)cc(Cl)c4)C(c4ccccc4)C3)cc2)n1 (stereo not drawn) ?
A: inactive

Q: Per the assay record, what outcome was assigned to CNc1cccc2c1C(=O)c1cccc(N)c1C2=O ?
A: inactive

Q: Per the assay record, what outcome was assigned to Cc1nn(-c2ccc(-c3ccc(OC(F)(F)F)cc3)cc2)c2nc(-c3ccccc3)nc(N)c12 ?
A: inactive

Q: Per the assay record, what outcome was assigned to CCCCc1n(Cc2ccc3ccccc3n2)cc[n+]1Cc1ccc2ccccc2c1 ?
A: active

Q: Per the assay record, what outcome was assigned to CCOC(=O)C(=Cc1c(-c2ccccc2)[nH]c2ccccc12)C(=O)OCC ?
A: active

Q: Per the assay record, what outcome was assigned to Cc1c(Cl)cccc1NC(=O)c1sc2nc3c(cc2c1N)CN(Cc1ccccc1)CC3 ?
A: inactive

Q: Per the assay record, what outcome was assigned to Cc1ccc(C(=O)O)o1 ?
A: inactive

Q: Per the assay record, what outcome was assigned to C=C(C)[C@@H]1CC[C@]2(C(=O)OCCCC[P+](c3ccccc3)(c3ccccc3)c3ccccc3)CC[C@]3(C)[C@H](CC[C@@H]4[C@@]5(C)CC[C@H](OC(=O)C(Cl)Cl)C(C)(C)[C@@H]5CC[C@]43C)[C@@H]12 ?
A: active

Q: Per the assay record, what outcome was assigned to COc1cc(/C=C/C(=O)/C=C/c2cc3ccc(Cl)cc3[nH]c2=O)ccc1O ?
A: inactive

Q: Per the assay record, what outcome was assigned to CCCn1c2cc(OCc3cn(-c4ccc(Br)cc4)nn3)ccc2c2ccnc(C)c21 ?
A: inactive

Q: Per the assay record, what outcome was assigned to C/C(=N\NC(=O)c1ccncc1)c1ccc(N)cc1 ?
A: inactive

Q: Per the assay record, what outcome was assigned to Nc1c(C(=O)Nc2ccccn2)sc2nc3c(cc12)CCCC3 ?
A: inactive

Q: Per the assay record, what outcome was assigned to COc1cc(-c2csc(NC(=O)Nc3ccc(Cl)cc3)n2)cc(OC)c1OC ?
A: active

Q: Per the assay record, what outcome was assigned to COc1ccc(Nc2nc(SCC(C)C)nc(-c3ccc(F)cc3)c2C#N)cc1 ?
A: inactive

Q: Per the assay record, what outcome was assigned to Cc1cc(C)cc(Nc2nccc(-c3c(-c4ccc(F)cc4)ncn3C3CCNCC3)n2)c1 ?
A: inactive

Q: Per the assay record, what outcome was assigned to O=C1C(Cl)=C(Nc2ccc3c(c2NC2=C(Cl)C(=O)c4ccccc4C2=O)C(=O)c2ccccc2C3=O)C(=O)c2ccccc21 ?
A: inactive

Q: Per the assay record, what outcome was assigned to OCCNc1nc(NCCO)nc(Nc2ccc(C3=NN(c4cc(Cl)cc(Cl)c4)C(c4ccc(C(F)(F)F)cc4)C3)cc2)n1 (stereo not drawn) ?
A: inactive

Q: Per the assay record, what outcome was assigned to CC1(C)[C@@H](O)CC[C@]2(C)[C@H]3CC[C@@H]4[C@H]5[C@H](c6cn(-c7ccccc7)nn6)CC[C@]5(CO)CC[C@@]4(C)[C@]3(C)CC[C@@H]12 ?
A: inactive

Q: Per the assay record, what outcome was assigned to C[C@]12CC[C@@H]3c4ccc(O)cc4CC[C@H]3[C@@H]1C[C@H](O)C2 ?
A: inactive

Q: Per the assay record, what outcome was assigned to N#C/C(=C/c1ccc(O)c([N+](=O)[O-])c1)c1nc(-c2ccc([N+](=O)[O-])cc2)cs1 ?
A: active

Q: Per the assay record, what outcome was assigned to CC(/C=C/c1ccccc1)=N/NC(=O)c1ccncc1 ?
A: inactive

Q: Per the assay record, what outcome was assigned to Cn1c2ccccc2c2c(OC(=O)c3ccccc3)c3c(nc21)-c1ccccc1C3 ?
A: inactive

Q: Per the assay record, what outcome was assigned to N#Cc1c(-c2ccc(F)cc2)nc(N=Nc2c(O)[nH]c3ccccc23)nc1N1CCOCC1 ?
A: inactive

Q: Per the assay record, what outcome was assigned to CCOC(=O)c1c(-c2ccc(O)cc2)c(C#N)c2c(C#N)c(N)nn2c1N ?
A: inactive

Q: Per the assay record, what outcome was assigned to CC(C)NS(=O)(=O)c1cccc(-c2ccc3c(=O)n(CCCN)c4c(c3c2)C(=O)c2ccccc2-4)c1 ?
A: inactive

Q: Per the assay record, what outcome was assigned to NC(=O)C(O)(c1ccccc1)c1ccccc1 ?
A: inactive

Q: Per the assay record, what outcome was assigned to COc1cc(F)c(-c2nc3c(C)cccc3n2Cc2c(F)cccc2F)c(F)c1 ?
A: inactive

Q: Per the assay record, what outcome was assigned to CC1CCCN(CCCCCOc2ccc3oc4ccccc4c(=O)c3c2)C1 (stereo not drawn) ?
A: inactive

Q: Per the assay record, what outcome was assigned to C#C[C@@]1(O)[C@@H](CO)O[C@@H](n2cc(F)c3c(N)ncnc32)[C@@H]1O ?
A: active

Q: Per the assay record, what outcome was assigned to COC(=O)CCc1n(Cc2ccc3ccccc3c2)c2ccccc2[n+]1Cc1ccc2ccccc2c1 ?
A: active

Q: Per the assay record, what outcome was assigned to c1cc(CNC23CC4CC(CC(C4)C2)C3)cc(C[N+](Cc2cccc(CNC34CC5CC(CC(C5)C3)C4)c2)(Cc2cccc(CNC34CC5CC(CC(C5)C3)C4)c2)Cc2cccc(CNC34CC5CC(CC(C5)C3)C4)c2)c1 (stereo not drawn) ?
A: inactive

Q: Per the assay record, what outcome was assigned to Cc1cnc(SCc2ccc(Cl)cc2)[nH]c1=S ?
A: inactive

Q: Per the assay record, what outcome was assigned to CCc1ccc(OCc2ccccc2C(=O)Nc2ccc3nc(C)cc(N)c3c2)cc1 ?
A: active
